// reported mass density per item
conditions: 280.9 K; 101.33 kPa; Liquid; Vibrating tube method
Field format: number, assumed kg/m3, no unit text.

For orientation, consider the following solved cases.
Data request: Let me know recorded mass density for CC(C)C(=O)[O-].C[NH2+]CCO [2-hydroxy-N-methylethanaminium isobutyrate] , thanks.
Data returned: 1054.36

Data request: Let me know recorded mass density for C[NH2+]CCO.O=C[O-] [2-hydroxy-N-methylethanaminium formate] , thanks.
Data returned: 1137.88

Data request: Let me know recorded mass density for CCCCC(=O)[O-].C[NH2+]CCO [2-hydroxy-N-methylethanaminium pentanoate] , thanks.
Data returned: 1027.85

Data request: Let me know recorded mass density for CC(=O)[O-].C[NH2+]CCO [N-methyl-2-hydroxyethylammonium acetate] , thanks.
Data returned: 1111.18

Data request: Let me know recorded mass density for CCCC(=O)[O-].C[NH2+]CCO [N-methyl-2-hydroxyethylammonium butanoate] , thanks.
Data returned: 1050.88

Next up:
Data request: Let me know recorded mass density for CCC(=O)[O-].C[NH2+]CCO [2-hydroxy-N-methylethanaminium propionate] , thanks.
Data returned: 1082.5

====

settings: 309.9 K; 101.33 kPa; Liquid; Pulse-echo method
// reported speed of sound per item
Field format: number, assumed m/s, no unit text.

Data request: Let me know recorded speed of sound for CCCCC(=O)[O-].C[NH2+]CCO [2-hydroxy-N-methylethanaminium pentanoate] , thanks.
Data returned: 1512.2

Data request: Let me know recorded speed of sound for C[NH2+]CCO.O=C[O-] [2-hydroxy-N-methylethanaminium formate] , thanks.
Data returned: 1792.5

Data request: Let me know recorded speed of sound for CCCC(=O)[O-].C[NH2+]CCO [N-methyl-2-hydroxyethylammonium butanoate] , thanks.
Data returned: 1577.6

Data request: Let me know recorded speed of sound for CC(C)C(=O)[O-].C[NH2+]CCO [2-hydroxy-N-methylethanaminium isobutyrate] , thanks.
Data returned: 1578.2

Next up:
Data request: Let me know recorded speed of sound for CCC(=O)[O-].C[NH2+]CCO [2-hydroxy-N-methylethanaminium propionate] , thanks.
Data returned: 1655.4

====

conditions: 306.4 K; 101.33 kPa; Liquid; Vibrating tube method
// reported mass density per item
Field format: number, assumed kg/m3, no unit text.

For orientation, consider the following solved cases.
Data request: Let me know recorded mass density for CC(C)C(=O)[O-].C[NH2+]CCO [2-hydroxy-N-methylethanaminium isobutyrate] , thanks.
Data returned: 1038.06

Data request: Let me know recorded mass density for CCCCC(=O)[O-].C[NH2+]CCO [2-hydroxy-N-methylethanaminium pentanoate] , thanks.
Data returned: 1010.69

More entries:
Data request: Let me know recorded mass density for C[NH2+]CCO.O=C[O-] [2-hydroxy-N-methylethanaminium formate] , thanks.
Data returned: 1123.64

Data request: Let me know recorded mass density for CCCC(=O)[O-].C[NH2+]CCO [N-methyl-2-hydroxyethylammonium butanoate] , thanks.
Data returned: 1033.71

Data request: Let me know recorded mass density for CC(=O)[O-].C[NH2+]CCO [N-methyl-2-hydroxyethylammonium acetate] , thanks.
Data returned: 1095.89

Data request: Let me know recorded mass density for CCC(=O)[O-].C[NH2+]CCO [2-hydroxy-N-methylethanaminium propionate] , thanks.
Data returned: 1065.94

Provenance of the data: the NIST ThermoML archive (doi:10.1021/je900550v)
